Data origin: patent US9249145B2

Target: Jak2 (a.a. 828-1132) (Homo sapiens, UniProt O60674)
Construct: Jak2 (a.a. 828-1132); His tag (N); made in house; host or cells: insect cells (baculovirus)
Sequence (O60674 828-1132): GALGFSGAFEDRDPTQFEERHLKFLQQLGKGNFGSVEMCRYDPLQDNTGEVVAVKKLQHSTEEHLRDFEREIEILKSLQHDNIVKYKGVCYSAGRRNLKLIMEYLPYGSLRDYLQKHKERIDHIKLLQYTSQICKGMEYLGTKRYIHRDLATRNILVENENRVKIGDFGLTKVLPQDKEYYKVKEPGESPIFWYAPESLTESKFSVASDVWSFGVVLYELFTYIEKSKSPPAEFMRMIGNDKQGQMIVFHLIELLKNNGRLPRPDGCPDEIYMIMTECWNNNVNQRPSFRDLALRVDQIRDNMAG
Experiment: In vitro JAK kinase assay (HTRF, phosphorylation of biotinylated peptide), JAK2
Type: biochemical
Details: 1 mM ATP; Examples 12-91; read-out: JAK2 IC50 (nM) @ 1 mM ATP
Protocol: Compounds herein were tested for inhibitory activity of JAK targets according to the following in vitro assay described in Park et al., Analytical Biochemistry 1999, 269, 94-104. […] The phosphorylated peptide was detected by homogenous time resolved fluorescence (HTRF). […] Binding to the Europium labeled antibody took place for 40 minutes and HTRF signal was measured on a Fusion plate reader (Perkin Elmer, Boston, Mass.). […]
Structures can show the parent of a compound that is named as a salt.
Measure: IC50

Before answering, review these 6 worked examples.
Compound: N#CCC(CN1CCN(C(=O)Nc2c(Cl)cccc2Cl)CC1)n1cc(-c2ncnc3[nH]ccc23)cn1 (stereo not shown)
Tested system: Jak2 (a.a. 828-1132) (Homo sapiens, UniProt O60674)
IC50: 50 to 100 nM
--
Compound: N#CCC(CN1CCN(C(=O)c2c(F)cc(F)cc2F)CC1)n1cc(-c2ncnc3[nH]ccc23)cn1 (stereo not shown)
Tested system: Jak2 (a.a. 828-1132) (Homo sapiens, UniProt O60674)
IC50: < 10 nM
--
Compound: N#CCC(CN1CCN(C(=O)c2ncc(Cl)cc2F)CC1)n1ccc(-c2ncnc3[nH]ccc23)c1 (stereo not shown)
Tested system: Jak2 (a.a. 828-1132) (Homo sapiens, UniProt O60674)
IC50: 10 to 50 nM
--
Compound: N#CCC(CN1CCN(S(=O)(=O)c2cc(F)cc(F)c2)CC1)n1cc(-c2ncnc3[nH]ccc23)cn1 (stereo not shown) [Example 61, trifluoroacetate salt]
Tested system: Jak2 (a.a. 828-1132) (Homo sapiens, UniProt O60674)
IC50: < 10 nM
--
Compound: N#CCC(CN1CCN(C(=O)c2cc(Cl)cc(OC(F)(F)F)c2)CC1)n1cc(-c2ncnc3[nH]ccc23)cn1 (stereo not shown)
Tested system: Jak2 (a.a. 828-1132) (Homo sapiens, UniProt O60674)
IC50: 50 to 100 nM
--
Compound: COc1ccc(C(=O)N2CCN(CC(CC#N)n3cc(-c4ncnc5[nH]ccc45)cn3)CC2)cc1Cl (stereo not shown) [Example 44, trifluoroacetate salt]
Tested system: Jak2 (a.a. 828-1132) (Homo sapiens, UniProt O60674)
IC50: 10 to 50 nM

Param item: Cc1cc(F)ccc1NC(=O)N1CCN(CC(CC#N)n2cc(-c3ncnc4[nH]ccc34)cn2)CC1 (stereo not shown) ; param system: Jak2 (a.a. 828-1132) (Homo sapiens, UniProt O60674); output IC50: > 100 nM

Known value: Jak2 (a.a. 828-1132) (Homo sapiens, UniProt O60674) IC50 of the compound N#CCC(CN1CCN(C(=O)Nc2ccccc2OC(F)(F)F)CC1)n1cc(-c2ncnc3[nH]ccc23)cn1 (stereo not shown) equals 50 to 100 nM

Fill in: Jak2 (a.a. 828-1132) (Homo sapiens, UniProt O60674) IC50 for N#CCC(CN1CCN(C(=O)Nc2ccccc2OC(F)F)CC1)n1cc(-c2ncnc3[nH]ccc23)cn1 (stereo not shown) = 50 to 100 nM

# IC50 measured on Jak2 (a.a. 828-1132) (Homo sapiens, UniProt O60674) for item N#CCC(CN1CCN(C(=O)c2ncc(F)cc2F)CC1)n1ccc(-c2ncnc3[nH]ccc23)c1 (stereo not shown) = 10 to 50 nM

Here N#CCC(CN1CCN(C(=O)c2ccc(C(F)(F)F)cc2F)CC1)n1cc(-c2ncnc3[nH]ccc23)cn1 (stereo not shown) [Example 45, trifluoroacetate salt] was tested on Jak2 (a.a. 828-1132) (Homo sapiens, UniProt O60674), and its IC50 came to 10 to 50 nM

Considering N#CCC(CN1CCN(C(=O)c2ccc(Cl)cc2F)CC1)n1cc(-c2ncnc3[nH]ccc23)cn1 (stereo not shown) , its IC50 with Jak2 (a.a. 828-1132) (Homo sapiens, UniProt O60674) was recorded as < 10 nM

Here COc1cc(C(=O)N2CCN(CC(CC#N)n3cc(-c4ncnc5[nH]ccc45)cn3)CC2)ccc1F (stereo not shown) was tested on Jak2 (a.a. 828-1132) (Homo sapiens, UniProt O60674), and its IC50 came to 10 to 50 nM

Tested on Jak2 (a.a. 828-1132) (Homo sapiens, UniProt O60674), the item N#CCC(CN1CCN(C(=O)c2ccc(F)cn2)CC1)n1cc(-c2ncnc3[nH]ccc23)cn1 (stereo not shown) [Example 21, trifluoroacetate Salt] showed IC50 equal to 50 to 100 nM

C[C@H]1CN(C(=O)c2ccc(C#N)cc2F)CCN1CC(CC#N)n1cc(-c2ncnc3[nH]ccc23)cn1 (single isomer, unassigned) [25, S-2] on Jak2 (a.a. 828-1132) (Homo sapiens, UniProt O60674) gives IC50 = > 100 nM

The measured IC50 that N#CCC(CN1CCN(C(=O)c2ncc(Cl)cc2F)CC1)n1cc(-c2ncnc3[nH]ccc23)cn1 (stereo not shown) showed for Jak2 (a.a. 828-1132) (Homo sapiens, UniProt O60674) is < 10 nM

Reading of IC50 for Cc1cccc(Cl)c1NC(=O)N1CCN(CC(CC#N)n2cc(-c3ncnc4[nH]ccc34)cn2)CC1 (stereo not shown) with Jak2 (a.a. 828-1132) (Homo sapiens, UniProt O60674): 10 to 50 nM

Here N#CCC(CN1CCN(C(=O)c2ccc(C(F)(F)F)cc2F)CC1)n1ccc(-c2ncnc3[nH]ccc23)c1 (stereo not shown) was tested on Jak2 (a.a. 828-1132) (Homo sapiens, UniProt O60674), and its IC50 came to 10 to 50 nM

// compound N#CCC(CN1CCN(C(=O)c2cccc(OC(F)(F)F)c2F)CC1)n1cc(-c2ncnc3[nH]ccc23)cn1 (stereo not shown) , assay Jak2 (a.a. 828-1132) (Homo sapiens, UniProt O60674), IC50 value: 10 to 50 nM

The reported Jak2 (a.a. 828-1132) (Homo sapiens, UniProt O60674) IC50 of N#CCC(CN1CCN(C(=O)c2ccc(F)c(C(F)(F)F)c2)CC1)n1cc(-c2ncnc3[nH]ccc23)cn1 (stereo not shown) is > 100 nM

I looked up N#CCC(CN1CCN(C(=O)c2ccc(F)c(OC(F)(F)F)c2)CC1)n1cc(-c2ncnc3[nH]ccc23)cn1 (stereo not shown) and its IC50 for Jak2 (a.a. 828-1132) (Homo sapiens, UniProt O60674) was > 100 nM

---

Target: Jak2 (a.a. 828-1132) (Homo sapiens)
Construct: Jak2 (a.a. 828-1132); His tag (N); made in house; host or cells: insect cells (baculovirus)
Experiment: In vitro JAK kinase assay (HTRF, phosphorylation of biotinylated peptide), JAK2
Type: biochemical
Conditions: 1 mM ATP; Examples 1-11; read-out: IC50 (nM) @ 1 mM ATP JAK2
Protocol: Compounds herein were tested for inhibitory activity of JAK targets according to the following in vitro assay described in Park et al., Analytical Biochemistry 1999, 269, 94-104. […] The phosphorylated peptide was detected by homogenous time resolved fluorescence (HTRF). […] Binding to the Europium labeled antibody took place for 40 minutes and HTRF signal was measured on a Fusion plate reader (Perkin Elmer, Boston, Mass.). […]
Where a name gives a salt, the structure may show the parent alone.
Measure: IC50

Solved entries:
Molecule: CC(CN1CCN(S(=O)(=O)c2ccn(C)n2)CC1)n1cc(-c2ncnc3[nH]ccc23)cn1 (stereo not shown) [Example 9]
IC50: > 20 nM
--
Molecule: N#CCC(CN1CCN(C(=O)c2cc(F)cc(F)c2)CC1)n1cc(-c2ncnc3[nH]ccc23)cn1 (stereo not shown)
IC50: < 10 nM
--
Molecule: CC(CN1CCN(S(=O)(=O)c2ccn(C)n2)CC1)n1cc(-c2ncnc3[nH]ccc23)cn1 (stereo not shown) [Example 11, bis(phosphate) Salt]
IC50: > 20 nM
--
Molecule: N#CCC(CC1CCN(C(=O)c2ccc(F)cc2)CC1)n1cc(-c2ncnc3[nH]ccc23)cn1 (stereo not shown)
IC50: < 10 nM
--
Molecule: Cn1ccc(S(=O)(=O)N2CCC(CC(CC#N)n3cc(-c4ncnc5[nH]ccc45)cn3)CC2)n1 (stereo not shown)
IC50: < 10 nM
--
Molecule: N#CCC(CN1CCN(C(=O)c2ccc(C#N)cc2)CC1)n1cc(-c2ncnc3[nH]ccc23)cn1 (stereo not shown)
IC50: > 20 nM

Attention now shifts to the item below.
Record Cn1ccc(S(=O)(=O)N2CCN(CC(CC#N)n3cc(-c4ncnc5[nH]ccc45)cn3)CC2)n1 (stereo not shown) / Jak2 (a.a. 828-1132) (Homo sapiens), IC50 recorded as < 10 nM
